assay-summary: qHTS assay for measurement of the activity of small molecule inhibitors on Zika virus induced Caspase-3 activity in human astrocytoma cells (AID 1224859)
measurement-setup: SNB-19 ZIKV-induced caspase-3/7, luminescence, 6 h; series mostly up to 45.7 µM
Activity calls are given as the source filed them. Calls come from the whole dose curve; as a rule, active = well fitted inhibition curve with a large enough effect; inconclusive = small, poorly fitted or top-dose-only effect; inactive = no such curve, though single readings can be large or run the other way.
Answer with one of the outcomes active, inactive

These recorded examples may help you get a feel for the data.
* COc1ccc(C2(C#N)CCC(C(=O)O)CC2)cc1OC1CCCC1 (stereo not drawn) | inactive
* CC1=C(C)C(=O)C(C(CCCCCC(=O)O)c2ccccc2)=C(C)C1=O (stereo not drawn) | inactive
* Nc1ccn([C@@H]2O[C@H](CO)[C@@H](O)C2O)c(=O)n1 (stereo partly drawn) | inactive
* NC(=O)Cc1cccc(C(=O)c2ccccc2)c1N | inactive
* CC[C@]1(O)C[C@H]2CN(CCc3c([nH]c4ccccc34)[C@@](C(=O)OC)(c3cc4c(cc3OC)N(C=O)[C@H]3[C@@](O)(C(=O)OC)[C@H](OC(C)=O)[C@]5(CC)C=CCN6CC[C@]43[C@@H]65)C2)C1 | inactive

Inquiry: GET /call?item= "Cc1ccc(NC(=O)c2ccc(CN3CCN(C)CC3)cc2)cc1Nc1nccc(-c2cccnc2)n1" returns the recorded outcome of this test.
Reply text: inactive

Inquiry: O=C(c1ccccc1)c1ccc2n1CCC2C(=O)O (stereo not drawn) , same question.
Reply text: active

Inquiry: CCOC(=O)C(C)Oc1cccc2c(=O)n(CC(=O)Nc3ccc4c(c3)OCCO4)ccc12 (stereo not drawn) , same question.
Reply text: inactive

Inquiry: "COCCCN1CCC(NC(=O)c2cc(Cl)c(N)c3c2OCC3)CC1" , same question.
Reply text: inactive

Inquiry: CCCCC(CC)COC(=O)C(C#N)=C(c1ccccc1)c1ccccc1 (stereo not drawn) , same question.
Reply text: inactive

Inquiry: "C=C(c1ccc(C(=O)O)cc1)c1cc2c(cc1C)C(C)(C)CCC2(C)C" , same question.
Reply text: inactive
